test system: HL-60 cells; test: HL-60 differentiation (nitro blue tetrazolium reduction); assay type: cell-based, human; conditions: HL-60 cells, 4 days; FIG. 2; read-out: EC50, HL60 differentiation
pEC50: −log10 of the molar value.
endpoint: pEC50

[[record]]
compound = "C=C1/C(=C\\C=C2/CCC[C@]3(C)[C@@H]([C@H](C)CCCC(C)(C)O)CC[C@@H]23)C[C@@H](O)C[C@@H]1O [1,25-(OH)2D3, 1α,25-dihydroxyvitamin D3, reference compound]"
numeric_result = 8.52


Just for reference, patent US7879829B2 is where these values come from.
